- STUDY SYSTEM: Galactokinase (Homo sapiens)
- Sequence (P51570 whole entry): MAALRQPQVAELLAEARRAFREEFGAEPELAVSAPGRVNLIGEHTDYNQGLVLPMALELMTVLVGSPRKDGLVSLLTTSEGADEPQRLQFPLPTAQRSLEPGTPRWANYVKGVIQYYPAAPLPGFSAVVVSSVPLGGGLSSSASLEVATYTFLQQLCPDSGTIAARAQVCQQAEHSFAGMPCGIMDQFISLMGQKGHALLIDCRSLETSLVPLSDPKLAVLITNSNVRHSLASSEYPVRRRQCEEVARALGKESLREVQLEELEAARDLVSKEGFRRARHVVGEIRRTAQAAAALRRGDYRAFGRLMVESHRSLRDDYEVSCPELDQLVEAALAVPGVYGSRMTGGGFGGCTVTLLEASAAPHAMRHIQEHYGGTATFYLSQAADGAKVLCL
- ASSAY NAME: Inhibition of recombinant human GALK1 using galactose as substrate incubated for 1 hrs in the presence of ATP by Kinase-Glo reagent based luminescence assay
- EXPERIMENTAL SETUP: read-out: IC50
Exercise: state measured pIC50 for each of the molecules provided.
Keep it numeric: pIC50 is minus log10 of the concentration in mol/L.

# input Given CC1=C(C(=O)Nc2nncs2)C(c2ccccc2Cl)N=C(Nc2nc3ccccc3o2)N1 (stereo not given) , state its recorded pIC50.
# output 5.46

# input Item CC1=C(C(=O)NCc2cnn(C)c2)C(c2ccc(C)cc2Cl)N=C(Nc2nc3ccc(F)c(N)c3o2)N1 (racemic) has what recorded pIC50?
# output 7.32

# input Endpoint output: pIC50 of CCn1cc(CNC(=O)C2=C(C)NC(Nc3nc4ccc(F)c(N)c4o3)=NC2c2ccc(C)cc2Cl)cn1 (racemic) . Value?
# output 7.32

# input Item CCn1cc(CNC(=O)C2=C(C)NC(Nc3nc4ccc(F)c(N)c4o3)=N[C@H]2c2ccc(C)cc2Cl)cn1 has what recorded pIC50?
# output 7.17

# input What does the record list as pIC50 for COC(=O)c1ccc(NC(=O)C2=C(C)NC(Nc3nc4ccccc4o3)=NC2c2ccccc2Cl)cc1 (stereo not given) ?
# output 5.36
